Could you please report measured TGI for the items listed next?
Test system: CCRF-CEM leukemia
experiment.notes: NCI tumour cell line growth inhibition, 48 h

Lookup result for Cn1c(CCC2(C)Cc3ccccc3C(=O)O2)cc2ccccc2c1=O (centres undefined) ; measured TGI: 27 µM

Can you give me TGI for all of these, one by one?
1. Cc1cc2nc3[nH]c4c(Cl)cc(Cl)cc4c3nc2cc1C
2. CC(C)[C@@H](C)CC[C@@H](C)C1CC=C2[C@@H]3CCC4C[C@@H](O[Si](C)(C)C(C)(C)C)CC[C@]4(C)C3CC[C@@]21C (some centres undefined)

Marked response:
1: > 100 µM; 2: > 100 µM

Your task in this section: give TGI for each listed record.
1. O=C1/C(=C\c2cccc(Oc3ccccc3)c2)S(=O)(=O)C(c2ccccc2)N1c1cc(Cl)ccc1Cl (centres undefined)
2. O=C1C(C(Nc2ccccc2)c2ccccc2)=C([O-])c2ccccc21.O=C1C(C(Nc2ccccc2)c2ccccc2)=C([O-])c2ccccc21.[Ni+2] (centres undefined)
3. CC(=O)Oc1c(C)cc2c(c1C)C(C)CN2C(C)=O (centres undefined)

Marked response:
1: 40.7 µM; 2: > 100 µM; 3: > 100 µM

---

Give TGI for every item shown.
Tested on: NCI-H522 lung
experiment.notes: NCI tumour cell line growth inhibition, 48 h

Recorded results for 4 molecules are shown here.
What the record says about CC(CCc1ccccc1)NCC(O)n1c(/N=N/N(C)C)nc2c1c(=O)n(C)c(=O)n2C (stereo not given) : TGI is > 100 µM

Kindly note the recorded TGI for CCOC(=O)C(=Cc1ccc(-c2ccccc2)cc1)C(=O)OCC , which is 3.38 µM

TGI recorded for this molecule, CCOC(=O)c1cnc2c(C)cc(C)cc2c1NCCCN(C)C , is 35 µM

Record summary for NC(N)=NNC(=O)CCn1[nH]c(=O)c(Cl)c(Cl)c1=O : reported TGI = > 100 µM

Attention now turns to another entry.
Measured TGI, COc1cc2c(cc1OC)-c1cc(OC)c(OC)cc1[C@H]1CN3CCC[C@@]3(O)C=C21 : < 0.0001 µM

---

Test system: ACHN renal
experiment.notes: NCI tumour cell line growth inhibition, 48 h
reported.metric: TGI (µM)
One number for each entry, in µM.

Could I get TGI for every one of these entries?
1. CC(C)c1ccc(COCc2cc(CN3CCCC3)c(O)c3ncccc23)cc1
2. COc1cc2c(cc1OC)-c1cc(OC)c(OC)cc1[C@H]1CN3CCC[C@@]3(O)C=C21
3. CC(=O)Oc1ccc2c3c1[C@H]1O[C@H]1c1cccc(c1-3)[C@@H]1O[C@H]21
4. CC1OC(OC2C(O)COC(OC3C(C)OC(OC4C(OC(=O)[C@]56CCC(C)(C)C[C@@H]5C5=CCC7[C@@]8(C)C[C@H](O)[C@H](OC9OC(CO)C(O)C(O)C9O)[C@@](C)(CO)[C@@H]8CC[C@@]7(C)[C@]5(C)CC6)OCC(O)C4O)C(O)C3OC3OCC(O)C(O)C3O)C2O)C(O)C(O)C1O (stereo partly specified)

Marked response:
[5.44, 0.000787, 37.4, 36.1]

List the reported TGI of each molecule below.
1. Cn1cc(NC(=O)c2cc(NC(=O)CCCCCCCCC(=O)Nc3cc(C(=O)Nc4cc(C(=O)NCCC(N)N)n(C)c4)n(C)c3)cn2C)cc1C(=O)NCCC(=N)N
2. COc1ccc2c(c1)/C(=C\c1c(-c3ccccc3)nc3n1CCS3)C(=O)N2
3. COC(=O)c1ccc2[nH]c(O)c(C(=Nc3ccc(N(C)C(=O)CN4CCN(C)CC4)cc3)c3cccc(OC)c3)c2c1

Marked response:
[36.5, 56.8, 7.99]

---

I'd be grateful if you could share measured TGI for these entries.
Tested on: HS 578T breast
experiment.notes: NCI tumour cell line growth inhibition, 48 h
Where a SMILES comes first, the peptide text is derived from it. [ ]: non-standard residue; d: D form. The star is where a group is joined. Chg = N[CH](C(=O)O)C1CCCCC1; Cbz = O=C(OCc1ccccc1)*; OBn = c1ccc(CO*)cc1

Example molecules with recorded TGI:
Looking up O=S(=O)(Nc1cccc(Cl)c1)c1ccc(-c2cnc(C3CC3)o2)cc1 , I see its TGI listed as 16.6 µM

Item: O=S(=O)(O)c1ccc(-c2c3nc(c(-c4ccc(S(=O)(=O)O)cc4)c4ccc([nH]4)c(-c4ccc(S(=O)(=O)O)cc4)c4nc(c(-c5ccc(S(=O)(=O)O)cc5)c5ccc2[nH]5)C=C4)C=C3)cc1 | TGI: > 100 µM

TGI reported for this molecule CCn1cc(C2NC(=O)c3ccccc3N2)c2cccc(C)c21 (stereo not given) : 1.95 µM

// sample COC(=O)C(NC(=O)C(CC(=O)OCc1ccccc1)NC(=O)OCc1ccccc1)C1CCCCC1 (stereo not given) (Cbz-Asp(OBn)-[Chg]-OMe; configuration not given here) , its TGI was 81.3 µM

In plain terms, Cc1ncc(CSc2ccccc2N)c(CO)c1O has a documented TGI of > 100 µM

According to the records, this molecule Cc1ccc(N=Nc2c(O)c(C(=O)O)cc3ccccc23)c(S(=O)(=O)O)c1 displays TGI of > 100 µM

The molecule listed as COc1ccc2nc3n[nH]c(N)c3nc2c1 has a reported TGI of 23.8 µM

Lab book: TGI of O=C1Nc2ccccc2/C1=C/C(=N/c1nnc(-c2ccc(Cl)cc2)s1)c1ccccc1 noted as 16 µM

Summary for this molecule, COc1ccc(NC(=O)CSc2nnc(-c3ccc(N=Cc4ccc(Cl)cc4)cc3)o2)cc1 : TGI is > 100 µM

***
For record Cc1cccc(C)c1NC(=O)/C=C/c1ccccc1 the listed TGI is > 100 µM

---

Tested on: XF 498 CNS
experiment.notes: NCI tumour cell line growth inhibition, 48 h
Give measured TGI for each item. Keep answers brief.
Answers are plain numbers, in µM.

Record COc1ccc2ccnc(Cc3ccc(OCc4ccccc4)c(OC)c3)c2c1 , field TGI: 31.2

Entry Clc1ccc(OCc2nnc3n2N=C(c2ccccc2)CS3)cc1 , TGI reported as 30.9

Entry under test: C[C@]12CC[C@H](OC3CCCCO3)CC1=CC[C@@H]1C2CC[C@]2(C)/C(=N/OCCC#N)CCC12 (stereo partly drawn) . Its TGI was 20.5

Would you mind giving TGI for every compound in the list below?
1. Cn1cc(NC(=O)c2cc(NC(=O)CCCCCCCCC(=O)Nc3cc(C(=O)Nc4cc(C(=O)NCCC(N)N)n(C)c4)n(C)c3)cn2C)cc1C(=O)NCCC(=N)N
2. O=C1C(C(Nc2ccccc2)c2ccccc2)=C([O-])c2ccccc21.O=C1C(C(Nc2ccccc2)c2ccccc2)=C([O-])c2ccccc21.[Ni+2] (stereo not drawn)
3. CCOc1ccc(/C=C\c2cc(OC)c(OC)c(OC)c2)cc1

Marked response:
1: 66.8; 2: 54.8; 3: 0.0917

Batch: TGI for all items listed.
1. COc1ccc(NC(=O)CSc2nnc(-c3ccc(N=Cc4ccc(Cl)cc4)cc3)o2)cc1
2. N#C/C(=C/c1cccc2ccccc12)C(=O)c1ccccc1

Marked response:
59.2
39.3

---

Provide the recorded TGI for the entries that follow.
Tested on: RXF 393 renal
experiment.notes: NCI tumour cell line growth inhibition, 48 h
Where a SMILES comes first, the peptide text is derived from it. [ ]: non-standard residue; d: D form. The star is where a group is joined. Chg = N[CH](C(=O)O)C1CCCCC1; Cbz = O=C(OCc1ccccc1)*; OBn = c1ccc(CO*)cc1

Solved entries:
// compound Fc1cc(-c2csc3n[nH]c(=S)n23)c(Cl)cc1Cl , assay RXF 393 renal, TGI value: 63 µM

Form field TGI for item COc1cc2c(cc1O)[C@@]1(Cc3ccc(OC)c(OC)c3)CCC(=O)N1CC2 on RXF 393 renal: > 100 µM

The compound CCc1c(-c2ccccc2)[nH]c2ccccc2c1=O , tested on RXF 393 renal, showed TGI of > 100 µM

TGI value, target or system RXF 393 renal, for CCN(CC)c1ccc(/C=C/C2=NN(c3cccc(S(=O)(=O)O)c3)C3(C2)SCC(=O)N3c2nc3ccccc3s2)cc1 (stereo not drawn) : > 100 µM

// TGI (RXF 393 renal) for CC(C)Cn1cnc2c(Sc3c([N+](=O)[O-])ncn3C)nc(N)nc21 = > 100 µM

For every record below, what is its TGI?
1. OC1CC1Sc1ccccc1 (stereo not drawn)
2. Cc1cccc(-n2c(C)nc3ccc(NC(=S)Nc4ccccc4)cc3c2=O)c1
3. Cc1ccc2c(=O)cc(-c3ccc(Cl)cc3)[nH]c2n1
4. Cc1nc2ccccc2c(=O)n1NC(=O)c1ccc(N)cc1
5. COC(=O)C(NC(=O)C(CC(=O)OCc1ccccc1)NC(=O)OCc1ccccc1)C1CCCCC1 (stereo not drawn) (Cbz-Asp(OBn)-[Chg]-OMe; configuration not given here)
6. COc1ccc(Cc2nn(C3OC(COC(C)=O)C(OC(C)=O)C(OC(C)=O)C3OC(C)=O)c(=S)n(-c3ccc(OC)cc3)c2=O)cc1 (stereo not drawn)
7. OC[C@H]1C[C@@H]2Cc3ccccc3N2N1
8. NC(N)=NNC(=O)CCn1[nH]c(=O)c(Cl)c(Cl)c1=O

Marked response:
> 100 µM
> 100 µM
> 100 µM
> 100 µM
> 100 µM
> 100 µM
> 100 µM
> 100 µM

Dear colleague, could you please provide TGI for the compounds listed below?
1. CN(C)C(=O)Oc1ccc[n+](C)c1
2. CC(=O)Oc1cn(-c2ccc(Cl)cc2)nc1C1=NN(C(C)=O)C(c2ccc(F)cc2F)O1 (stereo not drawn)
3. CC(C)N(C(=O)C12C3(C(=O)OC(C)(C)C)C4C5(C#N)C3C1(C(=O)OC(C)(C)C)C5C42C(=O)OC(C)(C)C)C(C)C (stereo not drawn)
4. O=C1/C(=C/c2ccc(Cl)cc2Cl)CN(S(=O)(=O)c2ccccc2)C/C1=C\c1ccc(Cl)cc1Cl
5. COc1ccc2c(c1)C(=Nc1ccc(F)c(F)c1F)c1c-2c(Nc2ccc(F)c(F)c2F)nc2ccccc12

Marked response:
1: > 100 µM; 2: > 100 µM; 3: > 100 µM; 4: 2.68 µM; 5: 56.5 µM
